Just for reference, ChEMBL document CHEMBL4689842 is where these values come from.

System: U2OS
Assay: Multiplex assay against U2OS
Assay type: toxicity, cell-based
Details: human, 24 h, 1 µM, compound concentration 1 uM, replicate 2
Kindly return 1 if reported Population Normal (%) is no lower than 90%; return -1 if it is lower.

Observe how each entry below is paired with its result.
O=C1NC(=O)C(c2cnc3ccccn23)=C1c1cn2c3c(cc(F)cc13)CN(C(=O)N1CCCCC1)CC2 [LY-2090314] :: -1
CN1C2CCC1CC(OC(c1ccc(F)cc1)c1ccc(F)cc1)C2.Cl (stereo not drawn) :: 1
NC(=O)c1cccc(-c2cc(Nc3ccc(OC(F)(F)F)cc3)ncn2)c1 :: 1

Next:
Data request: Item Cc1cc(C)c(S(=O)(=O)N(Cc2ccc(-c3cccc(S(C)(=O)=O)c3)cc2)Cc2ccc(C(F)(F)F)o2)c(C)c1 with Population Normal (%) of 90% or above?
Data returned: 1
